Tested on: MDA-MB-231
Assay: In vitro cytotoxicity assay (MTT)
Format: cell-based, human
Conditions: Homo sapiens, 144 h, 6 days incubation
Reported IC50 values follow for various compounds
Numeric only. Scale: nM

{"COMPOUND": "N[C@H]1CC[C@H](Nc2nc(NCc3ccc(-c4ccccn4)cc3)n3ncc(Br)c3n2)CC1 [Compound 2384]", "UNIT NAME": "nM", "OBSERVED MEASUREMENT": 0.38}

Field: next compound
Just so you know, measured IC50 for N[C@H]1CC[C@@H](Nc2nc(NCc3ccc(-c4ccccn4)cc3)n3ncc(Br)c3n2)CC1 [Compound 2568] came out at 0.98

====

Molecular target: MDR1 (Homo sapiens, UniProt P08183)
Construct: host or cells: MDCK-MDR1 (Preadyport)
Sequence (P08183 whole entry): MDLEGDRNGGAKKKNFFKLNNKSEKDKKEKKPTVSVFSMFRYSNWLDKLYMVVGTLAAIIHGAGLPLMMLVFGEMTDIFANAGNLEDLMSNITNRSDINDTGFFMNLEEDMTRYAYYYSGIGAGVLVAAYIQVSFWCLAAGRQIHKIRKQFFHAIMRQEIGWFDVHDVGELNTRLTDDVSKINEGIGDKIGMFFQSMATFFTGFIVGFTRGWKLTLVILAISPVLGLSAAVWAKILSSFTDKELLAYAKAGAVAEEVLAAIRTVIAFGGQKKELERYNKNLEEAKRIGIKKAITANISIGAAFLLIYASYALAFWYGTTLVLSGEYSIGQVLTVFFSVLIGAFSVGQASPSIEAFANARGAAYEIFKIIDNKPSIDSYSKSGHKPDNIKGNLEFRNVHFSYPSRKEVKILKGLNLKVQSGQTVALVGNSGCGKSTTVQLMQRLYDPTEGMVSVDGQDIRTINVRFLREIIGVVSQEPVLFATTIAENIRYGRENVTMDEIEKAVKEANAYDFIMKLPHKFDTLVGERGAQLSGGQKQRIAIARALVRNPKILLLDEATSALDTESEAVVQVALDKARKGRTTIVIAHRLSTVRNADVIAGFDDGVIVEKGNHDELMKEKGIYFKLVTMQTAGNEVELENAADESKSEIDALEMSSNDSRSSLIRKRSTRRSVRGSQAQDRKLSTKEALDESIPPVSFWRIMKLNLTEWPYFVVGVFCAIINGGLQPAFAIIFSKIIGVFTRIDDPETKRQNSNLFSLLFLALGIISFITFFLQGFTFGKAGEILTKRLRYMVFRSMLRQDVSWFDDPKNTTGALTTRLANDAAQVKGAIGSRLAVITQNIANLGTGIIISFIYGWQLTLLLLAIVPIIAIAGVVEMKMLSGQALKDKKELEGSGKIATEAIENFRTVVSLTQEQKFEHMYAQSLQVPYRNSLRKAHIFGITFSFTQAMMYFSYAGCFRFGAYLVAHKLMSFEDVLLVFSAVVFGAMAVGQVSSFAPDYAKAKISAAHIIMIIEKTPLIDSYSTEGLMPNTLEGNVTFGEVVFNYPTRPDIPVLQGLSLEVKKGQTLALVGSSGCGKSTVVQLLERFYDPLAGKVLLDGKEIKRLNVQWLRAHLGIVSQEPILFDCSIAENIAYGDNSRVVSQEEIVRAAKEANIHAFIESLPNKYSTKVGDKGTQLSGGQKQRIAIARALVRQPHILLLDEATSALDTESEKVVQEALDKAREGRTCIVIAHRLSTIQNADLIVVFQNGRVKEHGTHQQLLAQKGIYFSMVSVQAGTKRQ
Experiment: MDR1 efflux substrate assay in MDCK-MDR1
Assay type: in vitro ADME
Conditions: dog; MDCK-MDR1, 5µM, 60 min, pH 7.4; read-out: Papp B (acceptor) to A (donor)
Everything with Papp B→A at 60 min, 5 µM lower than 30 ×10⁻⁶ cm/s is NO; everything else, including exactly 30 ×10⁻⁶ cm/s, is YES.

Solved cases (5 shown):
{"COMPOUND": "N[C@H]1CCCC[C@@H]1Nc1nc(NCc2ccc(-c3ccccn3)cc2)n2ncc(Br)c2n1", "CLASSIFICATION": "YES"}
{"COMPOUND": "N[C@H]1CC[C@@H](Nc2nc(NCc3ccc(-c4ccccn4)cc3)n3ncc(Br)c3n2)CC1", "CLASSIFICATION": "YES"}
{"COMPOUND": "NCCCCNc1nc(NCc2ccc(-c3ccccn3)cc2)n2ncc(Br)c2n1", "CLASSIFICATION": "YES"}
{"COMPOUND": "N[C@H]1CCN(c2nc(NCc3ccc(-c4ccccn4)cc3)n3ncc(Br)c3n2)C1", "CLASSIFICATION": "NO"}
{"COMPOUND": "NCC1CCN(c2nc(NCc3ccc(-c4ccccn4)cc3)n3ncc(Br)c3n2)CC1", "CLASSIFICATION": "NO"}

Asked: API: above_or_equal(metric=Papp B→A at 60 min, 5 µM, cutoff=30 ×10⁻⁶ cm/s) for item CC[C@@]1(O)C(=O)OCc2c1cc1n(c2=O)Cc2c-1nc1cc(F)c(C)c3c1c2[C@@H](N)CC3 [Exatecan, reference compound]
Given back: NO

Asked: Form field: Papp B→A at 60 min, 5 µM at least 30 ×10⁻⁶ cm/s? Entry: CNCCN(C)c1nc(NCc2ccc(-c3ccccn3)cc2)n2ncc(Br)c2n1
Given back: YES

Asked: Item N[C@H]1CCC[C@@H](Nc2nc(NCc3ccc(-c4ccccn4)cc3)n3ncc(Br)c3n2)C1 with Papp B→A at 60 min, 5 µM of 30 ×10⁻⁶ cm/s or above?
Given back: NO

Asked: Kindly determine if Papp B→A at 60 min, 5 µM recorded for CN(CCN)c1nc(NCc2ccc(-c3ccccn3)cc2)n2ncc(Br)c2n1 is above or exactly 30 ×10⁻⁶ cm/s.
Given back: YES

Asked: Test whether the compound N[C@H]1CCC[C@@H]1Nc1nc(NCc2ccc(-c3ccccn3)cc2)n2ncc(Br)c2n1 records Papp B→A at 60 min, 5 µM of 30 ×10⁻⁶ cm/s or higher.
Given back: YES

Asked: Decide: Papp B→A at 60 min, 5 µM of Brc1cnn2c(NCc3ccc(-c4ccccn4)cc3)nc(NC[C@@H]3CCCN3)nc12 >= 30 ×10⁻⁶ cm/s?
Given back: YES

====

The following molecules are shown together with reported pIC50 values.
System: BXPC3
Test: In vitro cytotoxicity assay (MTT)
Format: cell-based
Details: Homo sapiens, BXPC-3, 144 h, 6 days incubation
A value of pIC50 is the negative decimal logarithm of a concentration given in moles per litre.

Worked cases, answers included:
{"MOLECULE": "N[C@H]1CC[C@H](Nc2nc(NCc3ccc(-c4ccccn4)cc3)n3ncc(Br)c3n2)CC1 [Compound 2384]", "PROPERTY": "pIC50", "OBSERVED MEASUREMENT": 8.84}
{"MOLECULE": "CN(CCN)c1nc(NCc2ccc(-c3ccccn3)cc2)n2ncc(Br)c2n1 [Compound 2600]", "PROPERTY": "pIC50", "OBSERVED MEASUREMENT": 8.94}
{"MOLECULE": "Brc1cnn2c(NCc3ccc(-c4ccccn4)cc3)nc(N3CCNCC3)nc12 [Compound 2601]", "PROPERTY": "pIC50", "OBSERVED MEASUREMENT": 8.76}

Switching to the query record.
Just so you know, measured pIC50 for NC[C@H]1CC[C@H](Nc2nc(NCc3ccc(-c4ccccn4)cc3)n3ncc(Br)c3n2)CC1 [Compound 2636] came out at 8.33

====

Test system: MCF-7
Assay: In vitro cytotoxicity assay (MTT)
Type: cell-based
Conditions: Homo sapiens, MCF7, 144 h, 6 days incubation
PROPERTY: pIC50
Remember the convention: pIC50 equals -log10 of concentration in molar.

Worked cases, answers included:
{"MOLECULE": "NC[C@H]1CC[C@H](Nc2nc(NCc3ccc(-c4ccccn4)cc3)n3ncc(Br)c3n2)CC1", "PROPERTY": "pIC50", "OBSERVED MEASUREMENT": 7.48}
{"MOLECULE": "Brc1cnn2c(NCc3ccc(-c4ccccn4)cc3)nc(NC3CCNCC3)nc12", "PROPERTY": "pIC50", "OBSERVED MEASUREMENT": 8.27}
{"MOLECULE": "N[C@H]1CC[C@@H](Nc2nc(NCc3ccc(-c4ccccn4)cc3)n3ncc(Br)c3n2)CC1", "PROPERTY": "pIC50", "OBSERVED MEASUREMENT": 7.94}
{"MOLECULE": "CN(CCN)c1nc(NCc2ccc(-c3ccccn3)cc2)n2ncc(Br)c2n1", "PROPERTY": "pIC50", "OBSERVED MEASUREMENT": 7.91}
{"MOLECULE": "CNCCNc1nc(NCc2ccc(-c3ccccn3)cc2)n2ncc(Br)c2n1", "PROPERTY": "pIC50", "OBSERVED MEASUREMENT": 7.47}

Measured pIC50 of CC(C)c1cnn2c(NCc3ccc(-c4ccccn4)cc3)nc(NC3CCNCC3)nc12 : 8.04

get_value(item= CC(C)c1cnn2c(NCc3ccc(-c4ccccn4)cc3)nc(N[C@H]3CC[C@H](N)CC3)nc12 , readout=pIC50) returns 8.11

Documented pIC50 of NC1CCN(c2nc(NCc3ccc(-c4ccccn4)cc3)n3ncc(Br)c3n2)CC1 : 7.89

Lookup result for N[C@H]1CC[C@H](Nc2nc(NCc3ccc(-c4ccccn4)cc3)n3ncc(Cl)c3n2)CC1 ; measured pIC50: 8.41

The recorded pIC50 for CNCCN(C)c1nc(NCc2ccc(-c3ccccn3)cc2)n2ncc(Br)c2n1 is 8.43

Reported pIC50 for Brc1cnn2c(NCc3ccc(-c4ccccn4)cc3)nc(NC3CCCNC3)nc12 (racemic) was 8.16

Input Brc1cnn2c(NCc3ccc(-c4ccccn4)cc3)nc(N3CCNCC3)nc12 . Output pIC50: 7.81

For N[C@H]1CC[C@H](Nc2nc(NCc3ccc(-c4ccccn4)cc3)n3ncc(Br)c3n2)CC1 the molecule record lists pIC50 as 8.47

Form field pIC50, entry Brc1cnn2c(NCc3ccc(-c4ccccn4)cc3)nc(NC[C@@H]3CCCN3)nc12 : 7.10

====

Biological target: CDK12/CycK (Homo sapiens)
Construct: GST-fusion or His-tag (not given for this kinase); purchased Reaction Biology, Germany; host or cells: Sf9 insect cells or E.coli
Sequence (Q9NYV4 whole entry, the tested form may be a part): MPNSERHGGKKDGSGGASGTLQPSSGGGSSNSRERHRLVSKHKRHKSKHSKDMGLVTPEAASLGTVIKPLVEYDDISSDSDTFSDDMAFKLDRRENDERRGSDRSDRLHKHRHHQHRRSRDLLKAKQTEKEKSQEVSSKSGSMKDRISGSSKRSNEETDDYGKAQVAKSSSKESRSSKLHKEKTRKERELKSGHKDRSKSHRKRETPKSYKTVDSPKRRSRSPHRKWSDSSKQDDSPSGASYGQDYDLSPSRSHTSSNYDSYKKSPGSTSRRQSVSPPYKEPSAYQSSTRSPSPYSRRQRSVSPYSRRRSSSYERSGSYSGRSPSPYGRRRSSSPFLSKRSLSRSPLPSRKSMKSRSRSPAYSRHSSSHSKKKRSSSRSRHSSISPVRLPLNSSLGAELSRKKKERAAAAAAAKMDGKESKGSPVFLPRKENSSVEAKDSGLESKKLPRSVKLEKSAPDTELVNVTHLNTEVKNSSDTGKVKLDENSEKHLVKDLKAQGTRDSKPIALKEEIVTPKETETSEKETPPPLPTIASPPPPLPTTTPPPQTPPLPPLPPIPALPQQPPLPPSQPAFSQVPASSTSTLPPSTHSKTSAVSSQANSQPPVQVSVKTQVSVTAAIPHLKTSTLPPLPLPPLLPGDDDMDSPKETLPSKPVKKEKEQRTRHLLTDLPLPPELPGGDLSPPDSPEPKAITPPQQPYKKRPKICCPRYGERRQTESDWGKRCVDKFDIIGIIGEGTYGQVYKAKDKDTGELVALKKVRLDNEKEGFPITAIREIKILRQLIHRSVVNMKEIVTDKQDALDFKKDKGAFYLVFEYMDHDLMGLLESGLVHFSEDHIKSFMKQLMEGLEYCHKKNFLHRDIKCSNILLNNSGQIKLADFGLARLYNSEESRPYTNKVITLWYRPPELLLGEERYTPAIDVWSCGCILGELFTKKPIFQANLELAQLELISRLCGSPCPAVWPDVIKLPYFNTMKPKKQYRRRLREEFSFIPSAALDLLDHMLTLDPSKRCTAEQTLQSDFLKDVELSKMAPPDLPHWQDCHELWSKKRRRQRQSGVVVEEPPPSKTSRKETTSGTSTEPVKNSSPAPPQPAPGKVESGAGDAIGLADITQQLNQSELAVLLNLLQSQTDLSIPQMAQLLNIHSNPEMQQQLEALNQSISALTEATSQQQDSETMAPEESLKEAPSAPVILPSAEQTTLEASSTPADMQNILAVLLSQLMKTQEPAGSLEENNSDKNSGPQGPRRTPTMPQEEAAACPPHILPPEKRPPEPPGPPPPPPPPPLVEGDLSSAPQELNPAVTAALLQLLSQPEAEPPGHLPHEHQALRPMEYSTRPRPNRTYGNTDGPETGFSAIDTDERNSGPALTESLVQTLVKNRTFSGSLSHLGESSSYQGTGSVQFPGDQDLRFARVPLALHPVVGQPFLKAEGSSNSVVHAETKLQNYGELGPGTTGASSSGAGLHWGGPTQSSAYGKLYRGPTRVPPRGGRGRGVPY
Sequence (O75909 whole entry partner, the tested form may be a part): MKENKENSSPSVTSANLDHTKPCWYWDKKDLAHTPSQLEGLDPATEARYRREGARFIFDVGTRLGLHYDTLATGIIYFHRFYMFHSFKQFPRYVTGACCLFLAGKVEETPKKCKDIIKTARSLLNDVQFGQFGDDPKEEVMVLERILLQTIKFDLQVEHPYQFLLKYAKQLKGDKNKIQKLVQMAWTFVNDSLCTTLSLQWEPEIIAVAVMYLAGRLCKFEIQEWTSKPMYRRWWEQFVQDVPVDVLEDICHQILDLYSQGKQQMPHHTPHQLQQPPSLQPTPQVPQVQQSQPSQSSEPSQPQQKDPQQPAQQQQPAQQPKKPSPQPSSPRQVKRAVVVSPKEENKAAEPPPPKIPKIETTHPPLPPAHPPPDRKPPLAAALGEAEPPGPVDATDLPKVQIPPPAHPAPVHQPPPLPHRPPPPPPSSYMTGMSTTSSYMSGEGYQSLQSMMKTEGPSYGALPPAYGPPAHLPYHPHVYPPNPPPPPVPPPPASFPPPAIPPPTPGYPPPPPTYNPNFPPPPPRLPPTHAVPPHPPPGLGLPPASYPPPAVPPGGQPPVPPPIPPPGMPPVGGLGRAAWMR
Test: IC50 profiling on top 25 protein kinases
Type: biochemical
Details: titration from 0.1 nM to 10 000 nM
PROPERTY: IC50

For this compound ( N[C@H]1CC[C@H](Nc2nc(NCc3ccc(-c4ccccn4)cc3)n3ncc(Br)c3n2)CC1 [Compound 2384] ), measured IC50 is < 25 nM

====

Recorded IC50 for the following compounds
System: SKBR-3
Experiment: In vitro cytotoxicity assay (MTT)
Format: cell-based, human
Conditions: 6 days incubation
// units = nM; emit number, no label

Please review the entries below; each comes with its answer.
{"COMPOUND": "N#Cc1cnn2c(NCc3ccc(-c4ccccn4)cc3)nc(N[C@H]3CC[C@H](N)CC3)nc12 [Compound 2478]", "UNIT NAME": "nM", "IC50": 17.6}
{"COMPOUND": "Brc1cnn2c(NCc3ccc(-c4ccccn4)cc3)nc(N[C@H]3CCNC3)nc12 [Compound 2657]", "UNIT NAME": "nM", "IC50": 0.13}
{"COMPOUND": "Brc1cnn2c(NCc3ccc(-c4ccccn4)cc3)nc(N[C@@H]3CCCNC3)nc12 [Compound 2660]", "UNIT NAME": "nM", "IC50": 0.11}
{"COMPOUND": "Brc1cnn2c(NCc3ccc(-c4ccccn4)cc3)nc(N[C@@H]3CCCNC3)nc12 [Compound 2659]", "UNIT NAME": "nM", "IC50": 0.72}

// next entry
The reported IC50 of the compound CC[C@H](CO)Nc1nc(NCc2ccc(-c3ccccn3)cc2)c2ncn(C(C)C)c2n1 [CR8, reference compound] was 30.6

These data points were gathered from patent EP4512427A1.
